# Tested on: MS2 coat protein
# test.details: apparent KD of MS2 coat protein; designed switch direction (-1 OFF switch, 1 ON switch): -1; higher = weaker reporter binding
# recorded.conditions: Eterna round: R95; input ligand: none
readout: apparent KD of MS2 coat protein (µM)
Give bare numbers, in µM.

Would you mind giving apparent KD of MS2 coat protein for every sequence in the list below?
1. AUUACUAACACGAAAGUGUUAGUACAAUAAGCUUGUGAAACAUGAGGAUCACCCAUGUCCUCAUAAGCUCGUCUUAA [salish99_TOv2_r3_010] (puzzle: Sensor v3, turn-off variant 2)
2. AGUACUAACGCGAAAGUGUUAGUACAAUAAGCUUGUGAAACAUGAGGAUCACCCAUGUCCUCAUAAGCUCGUCUUAU [salish99_TOv2_r3_023] (puzzle: Sensor v3, turn-off variant 2)
3. AAAAGAAGUGUUAGGAUAUGUGGAAGUAGAAAGACACAGAAGGAACAUGAGGAUCACCCAUGUGGCCUAAGAAC [Bibire] (puzzle: Brourd's mod of Exclusion 4)

Output:
1: 0.0119; 2: 0.0161; 3: 0.0116

Give apparent KD of MS2 coat protein for each listed item.
1. GAAGAGACAGGAUAUACAUGAGGAUCACCCAUGUGAGGAGGUUGGAGGCGGAGAAGGUGUAGAAGGGUCAAAGA [JR_Exclu3_Sub022] (puzzle: Exclusion 3)
2. CUAGUCCGAGGAUAUAUUAUGUGAAACAUGAGGAUCACCCAUGUAAUAUGAUGGAUGUAAAUAGAAGGCGGACUAG [Mat - Exclusion 5 - JL mod - D25] (puzzle: Exclusion 5)
3. AAUAACAAGUAAGAUCCUAACAUGAGGAUCACCCAUGUGCUCGUCUUGUAAAGUACUAUCACGAAAGUGAUAGUACA [Sensor 3, v1 - 51] (puzzle: Sensor v3, turn-off variant 1)
4. UGUACGAUGCGUGCUGACAUGCGUCGUGCAGCAGGUGAUACAUGAGGAUCACCCAUGUCCUCAUUUGCUCGUCUAGU [Mat - Sensor v3 - Turn-off var 2 - D24] (puzzle: Sensor v3, turn-off variant 2)
5. AAUAUAAGCAAGAUCCUAAACAUGAGGAUCACCCAUGUGCUCGUCUUAUAAAGUACUAUCACGAAAGUGAUAGUACA [Sensor 3, v1 - 65] (puzzle: Sensor v3, turn-off variant 1)
6. GAUUACUGCAAGCUUUGGGACAUGAGGAUCACCCAUGUUCGUCUUAUUGAUCUAGGUACGCUGACGUACCUAGAUCU [JL-sv1-2.28 Brourd mod] (puzzle: Sensor v3, turn-off variant 1)

Output:
1: 0.0514; 2: 0.0361; 3: 0.0547; 4: 0.0784; 5: 0.127; 6: 0.0141

# map each sequence to its apparent KD of MS2 coat protein
1. CAUACUCAAGUCAGGAUAUGCAGUCGAAUACGGGUGUAGAAGGGACAUGAGGAUCACCCAUGUAGAGAGUAAAG [EX-4 Malc #21] (puzzle: Brourd's mod of Exclusion 4)
2. AGUAGAUCUACGCUUGCGUGGAUCUGCAAUGCAGGUGUUACAUGAGGAUCACCCAUGUCCUCAUUUGCUCGUCUUAG [JL turnoff v2 99.06] (puzzle: Sensor v3, turn-off variant 2)
3. GAGAAGUGAGGAUAUGCGGUAAGGAUGAAAGGAAGGAAUGAGUAGAAGGCACAUGAGGAUCACCCAUGUAGAGU [JR_Exclu4_Sub081] (puzzle: Exclusion 4)
4. ACAACAAGCUUUUUGAACGUAGAACAUGCAGCUCUAGUCACAUGAGGAUCACCCAUGUCAGCCAGUUAGAUAGGUGA [JR_SV3TOV2_Sub066] (puzzle: Sensor v3, turn-off variant 2)
5. CUUGUAAAUGUGAGGAUAUACUGUUAGUAAAGUUAGUAGAAGGUACAUGAGGAUCACCCAUGUUAAUUACUCUA [JR_BME4_Sub047] (puzzle: Brourd's mod of Exclusion 4)
6. AGUACUAUCACGAAAGUGAUAGUACAAAAAGCAAGUGAAACAUGAGGAUCACCCAUGUCCUCAUUUGCUCGUCUUAU [Identical to 94% Sensor v2, turnoff variant 2] (puzzle: Sensor v3, turn-off variant 2)
7. AAGUACCGUCACGAUAGUGAUGGUACAACAAGCGAAUGUACAUGAGGAUCACCCAUGUCCUCUUUUGCUCGUCUUAU [Sensor 3 - 97] (puzzle: Sensor v3, turn-off variant 2)

Output:
0.0511
0.0919
0.0211
0.127
0.0145
0.0127
0.155

Reference for the values: the supplement of paper PMC9170038
